In this section, each of the substances is paired with its reported PERCENT INHIBITION MIGRATION.
# Tested on: endothelial cells ECV.304
# Method Notes: Migration assay across 8 μm polycarbonate filter transwell inserts
# Type: cell-based
# Test Conditions: analog at optimum concentration −8M, 24 hours (Table 4)
# Protocol: Polycarbonate filter transwell inserts (24 well size) with 8 μm pores (Nunc, Denmark) were used for the migration assay. ECV304 (10^4 cells/200 ul DMEM containing 0.1% BSA) was added to the upper chamber. […] The cells migrated to the lower chamber were viewed randomly at five different phase-contrast microscopic fields and the total number of cells counted using Video Pro 32 Image Analysis system. Percent inhibition in migration was determined with reference to the Control. […]
Positions of bridges follow the written chain, without caps; N, C: chain ends. Non-standard residues stand in square brackets, D forms with d. No end group written: not given here. Deg = CCC(N)(CC)C(=O)O; Aib = CC(C)(N)C(=O)O
Assay Metric: PERCENT INHIBITION MIGRATION (%)

Substance	Assay Metric	Recorded Value
Ala-Aib-Cys-Lys-Asn-Phe-Phe-D-Trp-Lys-Thr-Phe-Thr-Ser-Cys (A[Aib]CKNFF[dW]KTFTSC; ends and bridges not checked) [DT-62B]	PERCENT INHIBITION MIGRATION	8.5
Aib-Met-Tyr-Pro-Thr-Tyr-Deg-Lys-OH ([Aib]MYPTY[Deg]K-OH; N-terminus assumed; SMILES CCC(CC)(NC(=O)[C@H](Cc1ccc(O)cc1)NC(=O)[C@@H](NC(=O)[C@@H]1CCCN1C(=O)[C@H](Cc1ccc(O)cc1)NC(=O)[C@H](CCSC)NC(=O)C(C)(C)N)[C@@H](C)O)C(=O)N[C@@H](CCCCN)C(=O)O) [DT-18]	PERCENT INHIBITION MIGRATION	73.2
D-Leu-Met-Tyr-Pro-Thr-Tyr-D-Leu-Lys-OH ([dL]MYPTY[dL]K-OH; N-terminus assumed; SMILES CSCC[C@H](NC(=O)[C@H](N)CC(C)C)C(=O)N[C@@H](Cc1ccc(O)cc1)C(=O)N1CCC[C@H]1C(=O)N[C@H](C(=O)N[C@@H](Cc1ccc(O)cc1)C(=O)N[C@H](CC(C)C)C(=O)N[C@@H](CCCCN)C(=O)O)[C@@H](C)O) [DT-16]	PERCENT INHIBITION MIGRATION	90.07
Leu-Met-Tyr-Pro-Thr-D-Tyr-Leu-Lys-OH (LMYPT[dY]LK-OH; N-terminus assumed; SMILES CSCC[C@H](NC(=O)[C@@H](N)CC(C)C)C(=O)N[C@@H](Cc1ccc(O)cc1)C(=O)N1CCC[C@H]1C(=O)N[C@H](C(=O)N[C@H](Cc1ccc(O)cc1)C(=O)N[C@@H](CC(C)C)C(=O)N[C@@H](CCCCN)C(=O)O)[C@@H](C)O) [DT-13]	PERCENT INHIBITION MIGRATION	89.7
Ala-Aib-Cys-Lys-Asn-Phe-Phe-D-Trp-Lys-Thr-Phe-Thr-Ser-Cys (3-14 Disulphide bond) (A[Aib]CKNFF[dW]KTFTSC; disulfide 3-14) [DT-62A]	PERCENT INHIBITION MIGRATION	62.2
D-Leu-Met-Tyr-Pro-Thr-Tyr-Deg-Lys-OH ([dL]MYPTY[Deg]K-OH; N-terminus assumed; SMILES CCC(CC)(NC(=O)[C@H](Cc1ccc(O)cc1)NC(=O)[C@@H](NC(=O)[C@@H]1CCCN1C(=O)[C@H](Cc1ccc(O)cc1)NC(=O)[C@H](CCSC)NC(=O)[C@H](N)CC(C)C)[C@@H](C)O)C(=O)N[C@@H](CCCCN)C(=O)O) [DT-19]	PERCENT INHIBITION MIGRATION	80.4
Aib-Met-Gln-Trp-Phe-Aib-NH2 ([Aib]MQWF[Aib]-NH2; N-terminus assumed; SMILES CSCC[C@H](NC(=O)C(C)(C)N)C(=O)N[C@@H](CCC(N)=O)C(=O)N[C@@H](Cc1c[nH]c2ccccc12)C(=O)N[C@@H](Cc1ccccc1)C(=O)NC(C)(C)C(N)=O) [DT-31]	PERCENT INHIBITION MIGRATION	0
Aib-Met-Tyr-Pro-Thr-Tyr-Aib-Lys-OH ([Aib]MYPTY[Aib]K-OH; N-terminus assumed; SMILES CSCC[C@H](NC(=O)C(C)(C)N)C(=O)N[C@@H](Cc1ccc(O)cc1)C(=O)N1CCC[C@H]1C(=O)N[C@H](C(=O)N[C@@H](Cc1ccc(O)cc1)C(=O)NC(C)(C)C(=O)N[C@@H](CCCCN)C(=O)O)[C@@H](C)O) [DT-11]	PERCENT INHIBITION MIGRATION	82.5

Data provenance is patent US6492330B1.
